Molecular target: HLA-B*58:01
Test: IEDB peptide-MHC binding, purified MHC/direct/fluorescence; filed as Kd, often an IC50 or EC50 that approximates it; bounds were set here for any values at or beyond the usual limits of such assays
Conditions: source organism: Brucella abortus 2308
pKd: −log10 of the molar value.
measurement_name: pKd

query: pKd of IEVKFHPIL on HLA-B*58:01?
result: ≤ 4.70

* * *

Target: HLA-B*18:01
Assay: IEDB peptide-MHC binding, purified MHC/competitive/radioactivity; filed as Kd, often an IC50 or EC50 that approximates it; bounds were set here for any values at or beyond the usual limits of such assays
Conditions: source organism: Lymphocytic choriomeningitis virus (strain WE)
measurement_name: Kd

query: Entry under review: KEPVESCPL . Reported Kd?
result: ≥ 77.5 µM

Sourced from the Immune Epitope Database (IEDB)
